- EXPERIMENTAL PROTOCOL: self-splicing fitness, log relative to wild type (ln ratio); higher = more splicing; Tetrahymena group I intron in knt gene, E. coli kanamycin selection, DiMSum; sequences stand for … in CUCUCU…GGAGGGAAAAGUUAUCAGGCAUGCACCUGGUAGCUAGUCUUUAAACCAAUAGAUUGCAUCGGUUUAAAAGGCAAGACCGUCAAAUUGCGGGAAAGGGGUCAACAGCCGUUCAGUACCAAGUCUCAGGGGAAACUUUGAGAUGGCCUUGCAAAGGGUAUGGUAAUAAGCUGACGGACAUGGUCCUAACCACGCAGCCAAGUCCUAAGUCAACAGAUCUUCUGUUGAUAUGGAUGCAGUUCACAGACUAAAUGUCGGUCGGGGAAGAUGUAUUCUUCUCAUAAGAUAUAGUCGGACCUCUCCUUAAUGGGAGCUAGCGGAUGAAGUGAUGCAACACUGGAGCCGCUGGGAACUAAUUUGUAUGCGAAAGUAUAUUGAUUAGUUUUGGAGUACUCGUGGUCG;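 note: selection with 25 µg/mL kanamycin versus none on LB agar overnight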
- CONDITION SET: 37 °C
PROPERTY MEASURED: self-splicing fitness (ln)
Reply briefly: the number, and no unit.

Reported self-splicing fitness (ln) for `CUUGAGCAAUAUUACGGUCA` : what is it?
-3.58

Reported self-splicing fitness (ln) for `AGACAGCAAUAUUACGGGGU` : what is it?
-2.25

Reported self-splicing fitness (ln) for `UAUCAGCAAUAUUACGCCAA` : what is it?
-0.351

Reported self-splicing fitness (ln) for `AUUGAGCAAUAUUACGGGCC` : what is it?
-2.05

Reported self-splicing fitness (ln) for `AGGAAGCAAUAUUACGUCAU` : what is it?
-0.295

Reported self-splicing fitness (ln) for `CCACAGCAAUAUUACGGCGA` : what is it?
-1.63

Reported self-splicing fitness (ln) for `ACCGAGCAAUAUUACGAAAC` : what is it?
-2.95

====

- EXPERIMENTAL PROTOCOL: self-splicing fitness, log relative to wild type (ln ratio); higher = more splicing; Tetrahymena group I intron in knt gene, E. coli kanamycin selection, DiMSum; sequences stand for … in CUCUCU…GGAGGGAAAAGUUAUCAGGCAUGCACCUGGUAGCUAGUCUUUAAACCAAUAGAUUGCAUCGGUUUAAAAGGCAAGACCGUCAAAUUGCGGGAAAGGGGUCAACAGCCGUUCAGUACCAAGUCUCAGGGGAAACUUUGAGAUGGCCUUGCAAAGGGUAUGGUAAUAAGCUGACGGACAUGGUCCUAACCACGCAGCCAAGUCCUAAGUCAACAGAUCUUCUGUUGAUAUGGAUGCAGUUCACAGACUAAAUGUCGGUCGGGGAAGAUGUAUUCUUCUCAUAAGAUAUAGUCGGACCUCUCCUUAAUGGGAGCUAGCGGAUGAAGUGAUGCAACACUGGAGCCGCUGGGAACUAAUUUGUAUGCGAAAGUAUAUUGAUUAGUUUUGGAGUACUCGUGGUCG
- CONDITION SET: 30 °C
PROPERTY MEASURED: self-splicing fitness (ln)
Reply briefly: the number, and no unit.

Reported self-splicing fitness (ln) for `CAUCAGCAAUAUUACGAAUC` : what is it?
-1.97

Reported self-splicing fitness (ln) for `UGCGAGCAAUAUUACGUCAG` : what is it?
-2.69

Reported self-splicing fitness (ln) for `CUGUAGCAAUAUUACGUGUG` : what is it?
-1.79

Reported self-splicing fitness (ln) for `CAGGAGCAAUAUUACGCCGA` : what is it?
-1.75

Reported self-splicing fitness (ln) for `CGGGAGCAAUAUUACGAAGG` : what is it?
-1.9

Reported self-splicing fitness (ln) for `GUACAGCAAUAUUACGGGGA` : what is it?
-3.21

Reported self-splicing fitness (ln) for `ACUGAGCAAUAUUACGGUUA` : what is it?
-2.56

Reported self-splicing fitness (ln) for `AACGAGCAAUAUUACGAGCU` : what is it?
-4.74

Reported self-splicing fitness (ln) for `GCGCAGCAAUAUUACGGGCC` : what is it?
-2.96

Reported self-splicing fitness (ln) for `GAGGAGCAAUAUUACGGCUU` : what is it?
-3.52

Reported self-splicing fitness (ln) for `AAUGAGCAAUAUUACGCCCU` : what is it?
-1.32

Reported self-splicing fitness (ln) for `CGGCAGCAAUAUUACGUUCA` : what is it?
-0.358

Reported self-splicing fitness (ln) for `GUCGAGCAAUAUUACGCCCG` : what is it?
-2.96

Reported self-splicing fitness (ln) for `UUGUAGCAAUAUUACGCGUC` : what is it?
-3.51

Reported self-splicing fitness (ln) for `CGAUAGCAAUAUUACGCAAC` : what is it?
-3.83

Reported self-splicing fitness (ln) for `UGCGAGCAAUAUUACGGCUU` : what is it?
-1.76

Reported self-splicing fitness (ln) for `GAGCAGCAAUAUUACGGUUG` : what is it?
-3.18

Reported self-splicing fitness (ln) for `UACAAGCAAUAUUACGCAGC` : what is it?
-4

Reported self-splicing fitness (ln) for `GCUGAGCAAUAUUACGGUCU` : what is it?
-2.03

Reported self-splicing fitness (ln) for `AGCAAGCAAUAUUACGGAUA` : what is it?
-3.3

Reported self-splicing fitness (ln) for `AAUUAGCAAUAUUACGAUAA` : what is it?
-0.869

Reported self-splicing fitness (ln) for `GUGGAGCAAUAUUACGUUGG` : what is it?
-3.39

Reported self-splicing fitness (ln) for `CAGUAGCAAUAUUACGGGGC` : what is it?
-2.54

Reported self-splicing fitness (ln) for `AUUCAGCAAUAUUACGCCCA` : what is it?
-1.11

Reported self-splicing fitness (ln) for `UUUGAGCAAUAUUACGCGCG` : what is it?
-1.85

Reported self-splicing fitness (ln) for `GCUUAGCAAUAUUACGCGGG` : what is it?
-3.43

Reported self-splicing fitness (ln) for `CUGAAGCAAUAUUACGACGG` : what is it?
-0.289

Reported self-splicing fitness (ln) for `ACCCAGCAAUAUUACGAUCU` : what is it?
-1.34

Reported self-splicing fitness (ln) for `AGGGAGCAAUAUUACGCUAU` : what is it?
-3.63

Reported self-splicing fitness (ln) for `GGAGAGCAAUAUUACGCGUU` : what is it?
-2.46

Reported self-splicing fitness (ln) for `GAGUAGCAAUAUUACGCUGG` : what is it?
-2.77

Reported self-splicing fitness (ln) for `AUAUAGCAAUAUUACGGGAC` : what is it?
-2.51

Reported self-splicing fitness (ln) for `CGUAAGCAAUAUUACGUACC` : what is it?
-1.94

Reported self-splicing fitness (ln) for `UCCUAGCAAUAUUACGACAC` : what is it?
-0.225

Reported self-splicing fitness (ln) for `UCCUAGCAAUAUUACGGCCU` : what is it?
-2.37

Reported self-splicing fitness (ln) for `GCAAAGCAAUAUUACGCUUG` : what is it?
-3.98

Reported self-splicing fitness (ln) for `ACAUAGCAAUAUUACGGGCG` : what is it?
-1.28

Reported self-splicing fitness (ln) for `UUUAAGCAAUAUUACGACCA` : what is it?
-0.979

Reported self-splicing fitness (ln) for `UCGUAGCAAUAUUACGUACG` : what is it?
-3.07

Reported self-splicing fitness (ln) for `CGUCAGCAAUAUUACGUUCG` : what is it?
-1.45

Reported self-splicing fitness (ln) for `UAAUAGCAAUAUUACGCUUU` : what is it?
-3.54

Reported self-splicing fitness (ln) for `AGUAAGCAAUAUUACGUAGU` : what is it?
-3.22

Reported self-splicing fitness (ln) for `AAAUAGCAAUAUUACGUGUC` : what is it?
-3.4

Reported self-splicing fitness (ln) for `UGGCAGCAAUAUUACGGAUA` : what is it?
-0.806

Reported self-splicing fitness (ln) for `GCCCAGCAAUAUUACGUGUA` : what is it?
-0.725

Reported self-splicing fitness (ln) for `GGCUAGCAAUAUUACGGAUC` : what is it?
-0.815

Reported self-splicing fitness (ln) for `CCCGAGCAAUAUUACGACCU` : what is it?
-2.45

Reported self-splicing fitness (ln) for `CCAUAGCAAUAUUACGGAGA` : what is it?
-4.12

Reported self-splicing fitness (ln) for `CUAAAGCAAUAUUACGGGCC` : what is it?
-2.8

Reported self-splicing fitness (ln) for `GUCCAGCAAUAUUACGAAGG` : what is it?
-1.34

Reported self-splicing fitness (ln) for `GGGAAGCAAUAUUACGACAC` : what is it?
-0.539

Reported self-splicing fitness (ln) for `GUUCAGCAAUAUUACGUUUU` : what is it?
-0.661

Reported self-splicing fitness (ln) for `GUGAAGCAAUAUUACGGAUA` : what is it?
-1.37

Reported self-splicing fitness (ln) for `UUUUAGCAAUAUUACGCUGA` : what is it?
-1.89

Reported self-splicing fitness (ln) for `UAAAAGCAAUAUUACGUUCA` : what is it?
-0.437
